molecular target: T1, IL-1beta (UniProt P01584 117-269); assay: Biacore
T1 construct: also called IL-1β
Readout Kind: fold difference in affinity vs parental (fold)
Response body: numeric value in fold, unit text excluded.

| Binder | fold difference in affinity vs parental (fold) |
| --- | --- |
| XPA23 Fab, heavy chain T58H (Fab, V domains shown) VH: EVQLLESGGGLVQPGGSLRLSCAASGFTFSKYFMFWVRQAPGKGLEWVSVISPSGGMHRYADSVKGRFTISRDNSKNTLYLQMNSLRAEDTAVYYCARVGYGGNSDYWGQGTLVTVSS VL: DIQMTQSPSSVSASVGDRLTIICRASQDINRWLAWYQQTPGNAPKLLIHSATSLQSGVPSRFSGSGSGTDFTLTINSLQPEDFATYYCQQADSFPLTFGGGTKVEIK | 0.98 |

// fold difference in affinity vs parental lookup, key: XPA23 Fab, heavy chain G56R (Fab, V domains shown) VH: EVQLLESGGGLVQPGGSLRLSCAASGFTFSKYFMFWVRQAPGKGLEWVSVISPSGRMTRYADSVKGRFTISRDNSKNTLYLQMNSLRAEDTAVYYCARVGYGGNSDYWGQGTLVTVSS VL: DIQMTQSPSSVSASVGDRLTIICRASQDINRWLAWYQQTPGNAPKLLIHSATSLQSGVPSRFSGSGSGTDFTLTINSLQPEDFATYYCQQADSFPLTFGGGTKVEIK
2.11

// fold difference in affinity vs parental lookup, key: XPA23 Fab, heavy chain T58N (Fab, V domains shown) VH: EVQLLESGGGLVQPGGSLRLSCAASGFTFSKYFMFWVRQAPGKGLEWVSVISPSGGMNRYADSVKGRFTISRDNSKNTLYLQMNSLRAEDTAVYYCARVGYGGNSDYWGQGTLVTVSS VL: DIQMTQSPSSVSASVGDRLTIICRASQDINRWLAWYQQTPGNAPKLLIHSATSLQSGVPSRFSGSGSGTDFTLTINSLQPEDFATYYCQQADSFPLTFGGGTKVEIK
0.9
